experimental-target: human ether-à-go-go-related gene (hERG) potassium channel (human);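 also: peak tail current of the secondary pulse compared with the same well before compound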
Sequence (Q12809 whole entry, looked up): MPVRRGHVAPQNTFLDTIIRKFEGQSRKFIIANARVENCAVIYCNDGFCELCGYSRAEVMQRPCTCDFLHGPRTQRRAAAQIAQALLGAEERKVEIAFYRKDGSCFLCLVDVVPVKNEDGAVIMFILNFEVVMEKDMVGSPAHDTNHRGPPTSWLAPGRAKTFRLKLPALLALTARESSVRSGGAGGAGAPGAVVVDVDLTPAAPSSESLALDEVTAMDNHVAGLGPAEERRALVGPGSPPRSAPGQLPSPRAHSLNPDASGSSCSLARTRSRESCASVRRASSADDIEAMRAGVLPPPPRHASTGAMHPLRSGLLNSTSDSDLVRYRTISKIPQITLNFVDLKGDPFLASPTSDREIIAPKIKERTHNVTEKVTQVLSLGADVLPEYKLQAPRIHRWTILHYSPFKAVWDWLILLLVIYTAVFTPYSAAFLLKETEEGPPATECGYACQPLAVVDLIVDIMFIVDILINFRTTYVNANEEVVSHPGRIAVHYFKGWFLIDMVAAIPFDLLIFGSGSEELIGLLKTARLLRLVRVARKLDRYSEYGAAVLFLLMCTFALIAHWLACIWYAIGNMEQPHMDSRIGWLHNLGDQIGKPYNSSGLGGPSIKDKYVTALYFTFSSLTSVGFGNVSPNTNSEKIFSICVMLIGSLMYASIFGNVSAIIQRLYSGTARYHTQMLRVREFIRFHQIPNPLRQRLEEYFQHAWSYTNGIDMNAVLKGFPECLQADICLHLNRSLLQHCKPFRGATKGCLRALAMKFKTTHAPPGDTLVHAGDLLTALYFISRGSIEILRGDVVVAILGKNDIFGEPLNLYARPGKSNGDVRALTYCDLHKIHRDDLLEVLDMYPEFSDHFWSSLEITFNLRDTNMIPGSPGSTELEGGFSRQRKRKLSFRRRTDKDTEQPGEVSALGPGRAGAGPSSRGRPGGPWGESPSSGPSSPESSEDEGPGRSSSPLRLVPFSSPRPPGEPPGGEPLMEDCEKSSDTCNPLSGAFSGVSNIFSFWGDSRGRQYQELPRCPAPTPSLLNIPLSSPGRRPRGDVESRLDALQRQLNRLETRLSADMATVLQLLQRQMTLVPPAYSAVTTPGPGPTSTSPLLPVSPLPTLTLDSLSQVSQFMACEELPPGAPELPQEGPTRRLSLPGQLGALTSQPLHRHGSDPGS
assay-summary: primary screen, population patch clamp on CHO cells stably expressing hERG; higher = less effect of the substance
The whole screen tested about 310,000 compounds, of which about 14,000 (4.5%) showed an effect of 50% or more. Effects have a minus sign here. The entries come from a sample that favours strong results as a whole.
Everything with hERG current change (%, negative = inhibition) at 10uM lower than -10% is f; everything else, including exactly -10%, is t.

{"molecule": "COc1cc2cc(CN(CCc3ccccc3C)C(=S)NCCCN3CCOCC3)c(=O)[nH]c2cc1OC", "experimental-target": "human ether-à-go-go-related gene (hERG) potassium channel (human)", "class-assignment": "f"}
{"molecule": "O=C(/C=C/c1cccc([N+](=O)[O-])c1)NCCSCc1c(Cl)cccc1Cl", "experimental-target": "human ether-à-go-go-related gene (hERG) potassium channel (human)", "class-assignment": "f"}
{"molecule": "CCN(CC)CCCNC(=S)N(Cc1cccnc1)Cc1cc2cc(C)cc(C)c2[nH]c1=O", "experimental-target": "human ether-à-go-go-related gene (hERG) potassium channel (human)", "class-assignment": "t"}
{"molecule": "Cc1cccc2cc(CN(Cc3ccccc3)C(=S)NCCCN(C)C)c(=O)[nH]c12", "experimental-target": "human ether-à-go-go-related gene (hERG) potassium channel (human)", "class-assignment": "f"}
{"molecule": "Cc1ccc(CN(Cc2cc3cccc(C)c3[nH]c2=O)C(=S)NCCCN(C)C)cc1", "experimental-target": "human ether-à-go-go-related gene (hERG) potassium channel (human)", "class-assignment": "f"}
{"molecule": "Cc1ccccc1NC(=O)/C(C#N)=C\\c1cccnc1", "experimental-target": "human ether-à-go-go-related gene (hERG) potassium channel (human)", "class-assignment": "f"}
{"molecule": "COc1cc2cc(CN(CCc3cccc(C)c3)C(=S)NCCCN(C)C)c(=O)[nH]c2cc1OC", "experimental-target": "human ether-à-go-go-related gene (hERG) potassium channel (human)", "class-assignment": "t"}
{"molecule": "Cc1cccc(C(=O)NC(=S)N2CCN(C(=S)NC(=O)c3cccc(C)c3)CC2)c1", "experimental-target": "human ether-à-go-go-related gene (hERG) potassium channel (human)", "class-assignment": "t"}
{"molecule": "Cc1cccc(C)c1NC(=O)C(c1cccs1)N(Cc1ccco1)C(=O)Cn1nnc2ccccc21 (stereo not drawn)", "experimental-target": "human ether-à-go-go-related gene (hERG) potassium channel (human)", "class-assignment": "t"}
